Test system: biotinyl-Phe-oxazolone
RUN DESCRIPTION: self-aminoacylation, catalytic enhancement (BFO) (fold over background); higher = more active; k-Seq, kA / k0A0; sequences stand for … in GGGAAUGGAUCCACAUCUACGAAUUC…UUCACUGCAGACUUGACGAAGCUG
Variants at the floor of the assay were thinned out.
Param threshold (5) applies to self-aminoacylation; output T when value >= threshold, F when value < threshold.

| SEQUENCE DATA | DISCRETE LABEL |
| --- | --- |
| AUUACCCUGGUGAUCGAGUCA [Fam2.1 aminoacylation ribozyme variant] | F |
| AUUCACUUAGGUCAUCGGGUG [Fam2.2 aminoacylation ribozyme variant] | T |
| ACUACCCUGGUCAUCGUGUGA [Fam2.1 aminoacylation ribozyme variant] | T |
| CCACACUUAAAGGAAUCGGUC [Fam1B.1 aminoacylation ribozyme variant] | F |

Check the entry CCACACUUCAAGUACUCGGUC [Fam1B.1 aminoacylation ribozyme variant] : does self-aminoacylation equal or exceed 5?
F

Please check the record AUUCACCUAAGUCAACGGGUG [Fam2.2 aminoacylation ribozyme variant] and state if its self-aminoacylation is at or above 5.
T

Hi team, for CCACACUUGAAGCAAUCCGUC [Fam1B.1 aminoacylation ribozyme variant] , is the recorded self-aminoacylation at or above 5?
F
